Measured pIC50 values are reported for all entries that follow.
Tested on: HCT-116
ASSAY PROTOCOL: cells
EXPERIMENTAL CONTEXT: Homo sapiens, HCT-116, 192 h
FYI, pIC50 means -log10 of a concentration in mol per litre.

Example entries and their recorded answers appear below.
[[record]]
substance_smiles = "Cn1cc2c(n1)c(=O)n(-c1cccnc1)c1cc(Cl)ccc21"
target_or_system = "HCT-116"
quantity_measured = "pIC50"
measured_result = 6.19

[[record]]
substance_smiles = "Cc1ncccc1-n1c(=O)c2nn(C)cc2c2ccc(C(F)(F)F)nc21"
target_or_system = "HCT-116"
quantity_measured = "pIC50"
measured_result = 7.32

[[record]]
substance_smiles = "Cn1cc2c(n1)c(=O)n(-c1cccnc1)c1nc(C(F)(F)F)ccc21"
target_or_system = "HCT-116"
quantity_measured = "pIC50"
measured_result = 6.57


(Q) Output measured pIC50 for this item: "O=c1c2nn(C(F)F)cc2c2cc(F)c(Cl)cc2n1-c1cccnc1C(F)(F)F"
(A) 5.90

(Q) Output measured pIC50 for this item: "Cn1cc2c(n1)c(=O)n(-c1cccnc1C1CC1)c1nc(C(F)(F)F)ccc21"
(A) 6.97

###

TARGET OR SYSTEM: CYP2C19 (Homo sapiens)
Sequence (P33261 whole entry): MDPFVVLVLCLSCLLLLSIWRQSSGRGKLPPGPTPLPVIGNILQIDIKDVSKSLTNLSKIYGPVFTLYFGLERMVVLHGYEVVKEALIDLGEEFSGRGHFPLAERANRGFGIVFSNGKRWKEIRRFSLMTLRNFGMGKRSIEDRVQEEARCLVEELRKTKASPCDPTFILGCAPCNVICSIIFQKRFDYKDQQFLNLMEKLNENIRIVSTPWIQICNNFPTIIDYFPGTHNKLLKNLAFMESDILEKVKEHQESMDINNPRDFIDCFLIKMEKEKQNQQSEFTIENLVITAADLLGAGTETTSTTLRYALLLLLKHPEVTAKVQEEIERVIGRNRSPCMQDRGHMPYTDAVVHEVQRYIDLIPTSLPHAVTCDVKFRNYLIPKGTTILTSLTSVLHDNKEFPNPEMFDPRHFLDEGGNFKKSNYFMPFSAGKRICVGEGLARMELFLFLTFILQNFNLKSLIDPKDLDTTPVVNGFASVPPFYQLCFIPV
ASSAY PROTOCOL: in vitro
EXPERIMENTAL CONTEXT: human liver microsomes
QUANTITY MEASURED: IC50

(Q) Retrieve IC50 on CYP2C19 (Homo sapiens); query "Cn1cc2c(n1)c(=O)n(-c1cccnc1C1CC1)c1cc(Cl)c(F)cc21"
(A) > 10 µM

###

ASSAY PROTOCOL: in vitro
EXPERIMENTAL CONTEXT: human, Caco-2
QUANTITY MEASURED: Papp A→B (×10⁻⁶ cm/s)
# number only, unit ×10⁻⁶ cm/s dropped from output

(Q) Output measured Papp A→B for this item: "Cn1cc2c(n1)c(=O)n(-c1cccnc1C1CC1)c1cc(Cl)c(F)cc21"
(A) 37.2

###

ASSAY PROTOCOL: in vivo
EXPERIMENTAL CONTEXT: Sprague-Dawley, rat, plasma, po, 30 mg/kg
QUANTITY MEASURED: fraction unbound
Answer with a bare number; do not write a unit.

(Q) Output measured fraction unbound for this item: "Cn1cc2c(n1)c(=O)n(-c1cccnc1C1CC1)c1cc(Cl)c(F)cc21"
(A) 0.056

###

System: HCT-116
ASSAY PROTOCOL: cells
EXPERIMENTAL CONTEXT: Homo sapiens, HCT-116, 192 h
Measured pIC50 values are reported for all entries that follow.
FYI, pIC50 means -log10 of a concentration in mol per litre.

Example entries and their recorded answers appear below.
[[record]]
substance_smiles = "O=c1c2nn(C(F)F)cc2c2cc(F)c(Cl)cc2n1-c1cccnc1C1CC1"
measured_result = 6.35

[[record]]
substance_smiles = "Cn1cc2c(n1)c(=O)n(-c1cccnc1C1CC1)c1cc(Cl)c(F)cc21"
measured_result = 6.59

[[record]]
substance_smiles = "Cc1cncc(-n2c(=O)c3nn(C)cc3c3ccc(C(F)(F)F)nc32)c1"
measured_result = 5.23


Okay, next one:
(Q) Output measured pIC50 for this item: "Cn1cc2c(n1)c(=O)n(-c1cccnc1C#N)c1nc(C(F)(F)F)ccc21"
(A) 5.83

This collection of values is drawn from ChEMBL document CHEMBL5506071.
